System name: CDK7/CyclinH/MAT1 (Homo sapiens, UniProt P50613)
Sequence (P50613 whole entry): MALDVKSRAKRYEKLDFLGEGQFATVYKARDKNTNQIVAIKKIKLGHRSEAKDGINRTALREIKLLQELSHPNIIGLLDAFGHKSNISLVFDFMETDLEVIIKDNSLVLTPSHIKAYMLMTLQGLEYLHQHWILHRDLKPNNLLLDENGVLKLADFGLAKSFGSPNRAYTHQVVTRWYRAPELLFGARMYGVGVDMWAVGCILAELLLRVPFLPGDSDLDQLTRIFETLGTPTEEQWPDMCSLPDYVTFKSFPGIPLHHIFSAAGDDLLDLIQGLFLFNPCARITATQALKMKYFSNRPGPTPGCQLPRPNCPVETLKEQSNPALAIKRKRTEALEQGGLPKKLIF
Sequence (P51946 whole entry partner): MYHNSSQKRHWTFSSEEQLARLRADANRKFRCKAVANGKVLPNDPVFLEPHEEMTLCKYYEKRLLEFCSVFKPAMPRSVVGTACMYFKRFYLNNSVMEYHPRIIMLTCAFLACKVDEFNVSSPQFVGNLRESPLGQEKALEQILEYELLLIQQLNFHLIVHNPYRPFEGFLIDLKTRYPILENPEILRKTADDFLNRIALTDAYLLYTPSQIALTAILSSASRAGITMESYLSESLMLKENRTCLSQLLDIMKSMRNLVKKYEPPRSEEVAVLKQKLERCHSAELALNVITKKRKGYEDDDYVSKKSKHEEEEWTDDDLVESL
Sequence (P51948 whole entry partner): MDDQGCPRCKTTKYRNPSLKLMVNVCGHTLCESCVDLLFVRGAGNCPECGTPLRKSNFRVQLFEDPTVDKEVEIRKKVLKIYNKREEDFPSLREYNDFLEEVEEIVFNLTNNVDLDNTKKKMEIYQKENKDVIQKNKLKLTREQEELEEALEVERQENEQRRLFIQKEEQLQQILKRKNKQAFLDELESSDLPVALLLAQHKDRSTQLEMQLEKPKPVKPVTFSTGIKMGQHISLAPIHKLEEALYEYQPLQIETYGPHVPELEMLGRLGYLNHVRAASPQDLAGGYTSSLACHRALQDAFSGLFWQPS
Experiment: CDK7/CyclinH/MAT1 kinase inhibitory activity (Caliper mobility shift)
Protocol conditions: enzyme 12.5 nM, ATP 70 μM, 28° C. 30 min; read-out: CDK7/Cyclin H/MAT1 IC50
Value kind: IC50

CC(O)c1cnc2c(F)cc(-c3nc(N[C@@H]4CCOC[C@H]4O)ncc3Cl)cc2c1Cl (single isomer, unassigned) [Example 40a] ... 0.1 to 1 µM
O[C@@H]1COCC[C@H]1Nc1ncc(Cl)c(-c2cc(F)c3c(c2)N2CCNC[C@@H]2CO3)n1 [Example 19] ... 0.01 to 0.1 µM
Cc1[nH]cnc1-c1cnc2c(F)cc(-c3nc(N[C@@H]4CCOC[C@H]4O)ncc3Cl)cc2c1 [Example 18] ... ≥ 1 µM

Let's switch to this compound now.
// field: IC50; key: CC(C)(O)c1cnc2c(F)cc(-c3nc(N[C@@H]4CCOC[C@H]4O)ncc3Cl)cc2c1Cl [Example 17] ; value = ≥ 1 µM
